Hey, just so you know, these numbers are from PubChem BioAssay AID1347421.

compounds and their reported activity
Target: Sulfhydryl oxidase 1 (Homo sapiens) (UniProt O00391)
Sequence (O00391 whole entry, looked up): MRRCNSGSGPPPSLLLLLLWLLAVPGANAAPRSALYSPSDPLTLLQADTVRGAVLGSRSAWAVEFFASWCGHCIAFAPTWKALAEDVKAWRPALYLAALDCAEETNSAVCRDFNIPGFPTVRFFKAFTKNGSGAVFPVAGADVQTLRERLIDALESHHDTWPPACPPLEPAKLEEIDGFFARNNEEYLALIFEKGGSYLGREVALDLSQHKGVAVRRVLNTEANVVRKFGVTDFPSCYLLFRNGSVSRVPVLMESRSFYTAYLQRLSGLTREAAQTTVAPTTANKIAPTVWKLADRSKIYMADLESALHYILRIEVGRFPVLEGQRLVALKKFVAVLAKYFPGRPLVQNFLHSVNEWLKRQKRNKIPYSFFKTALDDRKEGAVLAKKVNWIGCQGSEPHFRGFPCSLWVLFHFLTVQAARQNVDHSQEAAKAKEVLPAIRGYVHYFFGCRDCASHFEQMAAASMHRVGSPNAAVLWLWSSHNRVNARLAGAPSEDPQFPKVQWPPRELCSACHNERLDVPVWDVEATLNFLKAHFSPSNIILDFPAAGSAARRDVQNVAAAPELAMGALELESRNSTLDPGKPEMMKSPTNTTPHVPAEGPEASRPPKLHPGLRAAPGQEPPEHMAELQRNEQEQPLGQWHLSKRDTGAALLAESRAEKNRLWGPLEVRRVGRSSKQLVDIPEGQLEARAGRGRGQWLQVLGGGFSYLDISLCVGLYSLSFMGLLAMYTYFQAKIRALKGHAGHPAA
Assay: QSOX1 enzyme inhibitors, confirmation, biochemical, ROS-Glo luminescence, single concentration (AID 1347421);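 further: 0% = DMSO wells with enzyme and 100% = wells lacking QSOX1 enzyme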
Conditions: recombinant hQSOX1, RNase A substrate, ROS-Glo H2O2 luminescence; at 10 µM
In all, about 1,500 compounds were measured (“activity”: median about 2, lowest 2% from about -18 on). Shown is part of a subset that was picked to be rich in the lowest values. Active and inactive are the calls of the source.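 How the source made its calls: active means inhibition of at least 40% at 10 µM; inconclusive means no clear call, values can overlap the other calls; inactive means the rest.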

COMPOUND | TARGET_UNDER_TEST | REPORTED_RESULT
CSCc1ccc(C(=O)N2CCC3(CCCN(CC(C)(C)C)C3)C2)o1 (stereo not drawn) | Sulfhydryl oxidase 1 (Homo sapiens) (UniProt O00391) | -0.7% (inactive)
CCCn1cc(CN2CCOC(CCc3ccccc3)C2)c(C)n1 (stereo not drawn) | Sulfhydryl oxidase 1 (Homo sapiens) (UniProt O00391) | -1.5% (inactive)

# input for lookup
Fill in: activity of `Cc1occc1C(=O)Nc1ccc([N+](=O)[O-])cn1` is ___
17.1%
